# Assay remarks: NCI Yeast Anticancer Drug Screen. Data for the mlh1 rad18 strain (AID 175)
# Particulars: S. cerevisiae mlh1 rad18 strain growth inhibition; at 50.0 µM; stronger effect = higher value
The panel holds about 79,000 compounds, 15% with a hit somewhere; the sample as a whole holds those more often.

| Compound | growth inhibition, % |
| --- | --- |
| C=CC1(C)CCC2C(=CCC3C2(C)CC(O)C(O)C3(C)COC2OC(C(=O)O)C(O)C(O)C2O)C1 (configuration not stated) (tested in a mixture with another compound) | -67.3 |
| COc1cc(Br)c(Br)cc1Br | 10.5 |
| Cc1cccc(NC(=O)COc2ccc(Cl)cc2C)c1 | -0.2 |
| COn1c2ccccc2c2c1cc1ccccc1[n+]2[O-] | -13.4 |
| O=C(O)CC1=C(c2ccccc2)C(O)(c2ccccc2)CC1=O (configuration not stated) | -11.1 |
| NC(CCC(N)C(=O)c1ccccc1)C(=O)c1ccccc1 (configuration not stated) | 11.7 |
| CCCCCCCCCCP(=O)(O)CCCCCCCCCC | -16.3 |
| NNC(=S)N/N=C(\c1nc2ccc(Cl)cc2[nH]c1=O)C(O)c1cccc([N+](=O)[O-])c1 (configuration not stated) | -8.4 |
| O=[N+]([O-])c1ccc(-c2ccccc2-c2ccccc2)cc1 | -22.9 |
| CCCCCCCCCC[n+]1cccc(C(N)=O)c1 | 28.9 |
| O=C(NCc1ccco1)Nc1ccccc1 | -7.55 |
| O/N=C1/CC2(N3CCOCC3)C3CC/C(=N\O)C2CC1(Cc1ccccc1)C3 (configuration not stated) | -10 |
| CC(C)(C)OC(=O)N[C@H]1CCN(C2CCCCC2)C1=O | -62.5 |
| COc1cc(C=Nc2ccc3c(c2)OCO3)ccc1OC(=O)c1ccccc1 | -5.5 |
| NCC(=O)NC1(C(=O)NCC(=O)O)CCCC1 | 1.3 |
| O=C1CCC([N+](=O)[O-])C(c2ccccc2Cl)N1 (configuration not stated) | 20.5 |
| COC(=O)C1C(C)C1c1ccc2c(c1)OCO2 (configuration not stated) | -25.5 |
| O=C(CC(=O)c1ccccc1)Nc1ccc(-c2nc3ccccc3c(=O)[nH]2)cc1 | 27.7 |
| Cc1ccc(S(=O)(=O)OC2C3OC(C)(C)OC3OC2C(c2cc(O)c3c(c2O)C(=O)c2ccccc2C3=O)c2cc(O)c3c(c2O)C(=O)c2ccccc2C3=O)cc1 (configuration not stated) | -25.1 |
| CN(C)c1ccc(/C=C/c2ccnc3c(N)cccc23)cc1 | 3.8 |
| COc1cccc(NC(=S)NC(=O)c2ccccc2)c1 | 45.7 |
| COc1cc(C(O)C(=O)c2cnc3cc([N+](=O)[O-])ccc3n2)ccc1O (configuration not stated) | -1.95 |

###

# Assay remarks: NCI Yeast Anticancer Drug Screen. Data for the mlh1 rad18 strain (AID 175)
# Particulars: S. cerevisiae mlh1 rad18 strain growth inhibition; at 50.0 µM
This is part of a sample that, as a whole, favours compounds with a hit. Of some 79,000 tested, about 15% had one in any assay. Activity calls are given as the source filed them. Cut-off read from the data, not from the text of the source: active = growth inhibition above about 70%; inactive = the rest.
Outcomes: active, inactive

| Molecule | Assigned label |
| --- | --- |
| COP(=O)(OC)C(NC(=O)C(F)(F)F)(c1ccccc1)C(F)(F)F (stereo not given) | inactive |
| COC(C[P+](Cc1ccccc1)(c1ccccc1)c1ccccc1)OC | inactive |
| COC(=O)c1c(O)cc(OC)cc1OCc1ccccc1 | inactive |
| CC(=O)OC1OC(COC(=O)c2ccccc2)C(OC(=O)c2ccccc2)C1OC(=O)c1ccccc1 (stereo not given) | inactive |
| O=C(O)CCCCCCCCCCS(=O)(=O)CCO | inactive |
| Nc1cn(C2CC(O)C(CO)O2)c(=O)[nH]c1=O (stereo not given) | inactive |
| CCOc1cn(C2CC(O)C(CO)O2)c(=O)[nH]c1=O (stereo not given) | inactive |
| Cc1cccc(C)c1NC(=S)N1CCC(CCCC2CCN(C(=S)Nc3c(C)cccc3C)CC2)CC1 | inactive |
| CCOC(OCC)n1ncnc1NC(=S)NCc1ccccc1 | inactive |
| Cc1c(CCO)sc[n+]1CC(=O)c1ccccc1 | inactive |
| CN1C(=O)Cc2ccccc21 | inactive |
| C=C(C)C(=O)Oc1ccccc1-c1ccccc1 | inactive |
| COC(=O)C1(C)CCCC2(C)C1CCC1(O)C2CC2OC2(C(C)C)C1O (stereo not given) | inactive |
| C#CCC1(C(=O)OCC)C(=O)c2ccccc2N(C)C1=O (stereo not given) | inactive |
| CCCC(C)OC(=O)CC(c1ccccc1)N1CCCCC1 (stereo not given) | inactive |
| CCCNC1=C(C(=O)OCC)C(=O)CO1 | inactive |
| O=C(O)CCC1CC1C(=O)c1ccccc1 (stereo not given) | inactive |
| C/C=C/C1N(C)CCCN1C | inactive |
| CC(CC(=O)O)C1(C)C2CCCCC2C2CCCCC21 (stereo not given) | inactive |
| O=C1C2C(C(=O)N1c1cccc3ccccc13)C1(Cl)C(Cl)=C(Cl)C2(Cl)C1(Cl)Cl (stereo not given) | active |
| CC(C)COC(=O)C(=O)OCC(C)C | inactive |
| Nc1ccccc1/C(O)=C1/CCOC1=O | inactive |
| Cc1cc(C)c(S(=O)(=O)ONC(=O)OC(C)(C)C)c(C)c1 | inactive |
| CC1CC12OC(=O)N(c1cc(Cl)cc(Cl)c1)C2=O (stereo not given) | inactive |
| Nc1nc2c(ncn2C2C=CC(CO)C2)c(=O)[nH]1 (stereo not given) | inactive |
| C=C1[C@H](OCC(C)C)[C@@H](OC(=O)C(C)CC)[C@@H](O)C(C)(C)/C=C/[C@H](C)C(=O)[C@@]2(O)C[C@H](C)[C@H](O)[C@@H]2[C@H]1OC(=O)C(C)CC (stereo not given in full) | inactive |
| CCOC(=O)/C(=C\c1cc(OC)ccc1OC)P(=O)(OCC)OCC | inactive |
| Cc1cccc(C)[n+]1[O-] | inactive |
| COc1ccccc1/C=N\NC(=O)c1ccccc1O | inactive |
| O=C(C1OC1c1ccccc1)C1OC1c1ccccc1 (stereo not given) | inactive |
| CC(c1ccccc1)C1OCC(CCCCO)O1 (stereo not given) | inactive |
| CC(Cl)(CO)CCl (stereo not given) | inactive |
| O=C(O)/C(Cl)=C(\Cl)C(=O)NC1C2CC3CC(C2)CC1C3 (stereo not given) | inactive |
| COc1cccc(/C=C(\NC(C)=O)c2nc3ccc(Cl)cc3[nH]2)c1 | inactive |
| COC(=O)C(=O)c1c(C(=O)OC)nc2nnc(N)n2c1-c1ccc(Cl)c(Cl)c1 | inactive |
| COC(=O)C1(C(=O)Nc2ccccc2)N=N1 | inactive |
| Cc1ccc(SCc2ccc(Cl)cc2)nn1 | inactive |
| O=c1oc2ccccc2c(O)c1C=NC(=S)c1ccncc1 | inactive |
| O=C1c2ccccc2C(=O)N1CC1CO1 (stereo not given) | inactive |
| O=S1(=O)CC(N2CCOCC2)C2=C(O1)c1sc(-c3ccccc3)nc1CC2 (stereo not given) | inactive |
| O=[N+]([O-])c1ccc(OCCCCCBr)c(Cl)c1 | inactive |
| CC(=O)C1=C(C)NC2C=CC=CN12 (stereo not given) | inactive |
| N#C/C(=C\NC(N)=S)c1nc2ccccc2s1 | inactive |
| CN(C)CC1CCC/C1=N/OC(=O)c1ccccc1 (stereo not given) | inactive |
| On1c(-c2ccccc2)c(-c2c(-c3ccccc3)n(O)c3ccccc23)c2ccccc21 | inactive |
| Cc1ccc(/C=N/S(=O)(=O)Cc2ccccc2)cc1 | inactive |
| CCOC(=O)CCN1C(=O)C(=O)N(c2ccc(OC)cc2)C1=S | inactive |
| CCC(=O)N1C(=O)OCC1C(C)C (stereo not given) | inactive |
| CCc1ccccc1NC(=O)C(=O)C(C(=O)c1ccc(OC)cc1)c1ccc(OC)cc1 (stereo not given) | inactive |
| CCCCCCCCCCCCCCCCCC(=O)OCC1CO1 (stereo not given) | inactive |

Provenance of the data: PubChem BioAssay (NCI)
